target_under_test: STAT6 protein (Homo sapiens, UniProt P42226)
Sequence (P42226 whole entry): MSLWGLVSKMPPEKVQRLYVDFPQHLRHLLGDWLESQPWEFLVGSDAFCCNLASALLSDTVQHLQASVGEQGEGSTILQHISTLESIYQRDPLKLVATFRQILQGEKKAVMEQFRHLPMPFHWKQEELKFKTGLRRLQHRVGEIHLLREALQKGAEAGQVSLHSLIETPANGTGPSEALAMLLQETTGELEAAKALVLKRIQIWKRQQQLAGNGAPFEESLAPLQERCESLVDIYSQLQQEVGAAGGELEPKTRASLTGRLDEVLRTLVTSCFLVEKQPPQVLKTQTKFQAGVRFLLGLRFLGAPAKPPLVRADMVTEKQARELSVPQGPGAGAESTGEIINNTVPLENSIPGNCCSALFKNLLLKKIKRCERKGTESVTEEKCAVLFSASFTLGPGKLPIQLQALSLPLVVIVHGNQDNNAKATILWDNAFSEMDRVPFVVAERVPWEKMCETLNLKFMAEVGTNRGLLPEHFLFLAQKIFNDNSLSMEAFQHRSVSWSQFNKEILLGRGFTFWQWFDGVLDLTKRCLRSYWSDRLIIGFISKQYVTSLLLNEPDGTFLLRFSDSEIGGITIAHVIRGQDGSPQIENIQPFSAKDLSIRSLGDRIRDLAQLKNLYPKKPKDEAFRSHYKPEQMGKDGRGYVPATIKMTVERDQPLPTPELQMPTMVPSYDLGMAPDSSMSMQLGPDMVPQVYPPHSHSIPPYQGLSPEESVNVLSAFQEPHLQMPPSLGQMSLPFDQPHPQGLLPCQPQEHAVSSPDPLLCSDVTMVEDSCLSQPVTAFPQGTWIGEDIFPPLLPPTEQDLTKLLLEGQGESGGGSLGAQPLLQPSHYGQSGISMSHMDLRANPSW
assay_explanation: Fluorescence polarization (FP) binding assay, STAT6
conditions: FP competition, 5 nM fluorescein-labeled tracer, 200 nM protein, PBS pH7.4; read-out: Binding STAT6
pKi: −log10 of the molar value.
value_kind: pKi

CC(C)(C)[C@H](NC(=O)c1cc2cc(C(F)(F)P(=O)(O)O)ccc2s1)C(=O)N1CCC[C@H]1C(=O)Nc1nc2ccccc2s1
5.00 to 6.00

I'd like to know its pKi. The compound in question is CC(C)(C)[C@H](NC(=O)c1cc2cc(C(F)(F)P(=O)(O)O)ccc2s1)C(=O)N1CCC[C@H]1C(=O)N1CCC2(CCCCC2)C1
5.00 to 6.00

Would you kindly repeat that for CC(C)(C)[C@H](NC(=O)c1cc2cc(C(F)(F)P(=O)(O)O)ccc2s1)C(=O)N1CCC[C@H]1C(=O)N1CC[C@H]2CN(C(=O)c3ccc(F)cc3)C[C@H]21 ?
< 5.00

Please give the result for CC(C)(C)[C@H](NC(=O)c1cc2cc(C(F)(F)P(=O)(O)O)ccc2s1)C(=O)N1Cc2ccccc2C[C@H]1C(=O)N1CCS(=O)(=O)[C@H](c2ccccc2)C1 too.
> 7.00

Same question, CC(=O)N1CC[C@H]2CC[C@@H](C(=O)N3CCc4ccccc4CC3)N2C(=O)[C@@H](NC(=O)c2cc3cc(C(F)(F)P(=O)(O)O)ccc3[nH]2)C1 this time
< 5.00

Follow-up entry: CC(C)(C)[C@H](NC(=O)c1cc2cc(C(F)(F)P(=O)(O)O)ccc2s1)C(=O)N1CCCCC[C@H]1C(=O)Nc1ccc(-c2ccccc2)s1
< 5.00

Can you check CN(C)C(=O)CCN(C(=O)[C@@H]1CCCN1C(=O)[C@@H](NC(=O)c1cc2cc(C(F)(F)P(=O)(O)O)ccc2s1)C(C)(C)C)c1ccc(-c2nccs2)cc1 next?
6.00 to 7.00

Please give the result for CC(C)(C)[C@H](NC(=O)c1cc2cc(C(F)(F)P(=O)(O)O)ccc2s1)C(=O)N1CCCC[C@H]1C(=O)Nc1ncc(-c2ccccc2)s1 too.
5.00 to 6.00

Again, but for CN(C(=O)[C@@H]1CC[C@@H]2CCC[C@H](NC(=O)c3cc4cc(C(F)(F)P(=O)(O)O)ccc4s3)C(=O)N21)c1ccc(Cl)cc1
< 5.00

CC(C)(C)[C@H](NC(=O)c1cc2cc(C(F)(F)P(=O)(O)O)ccc2s1)C(=O)N1CCCCC[C@H]1C(=O)N1CC[C@H](c2ccccc2)C1 ?
5.00 to 6.00

And the next one, CN1CC[C@H]2CC[C@@H](C(=O)N3CCc4ccccc4C3)N2C(=O)[C@@H](NC(=O)c2cc3cc(C(F)(F)P(=O)(O)O)ccc3[nH]2)C1 ?
< 5.00

Lookup CC(C)(C)[C@H](NC(=O)c1cc2cc(C(F)(F)P(=O)(O)O)ccc2s1)C(=O)N1Cc2ccccc2[C@H]1C(=O)Nc1ncc(-c2ccccc2)s1
5.00 to 6.00

###

pKi: −log10 of the molar value.
Target or system STAT5A (Homo sapiens, UniProt P42229): recorded pKi listed per item.

Use the examples below as a reference point.
CC(C)(C)[C@H](NC(=O)c1cc2cc(C(F)(F)P(=O)(O)O)ccc2[nH]1)C(=O)N1CCC[C@H]1C(=O)NC1CCc2ccccc21 (stereo partly shown)
< 5.00
CC(C)(C)[C@H](NC(=O)c1cc2cc(C(F)(F)P(=O)(O)O)ccc2s1)C(=O)N1C[C@H](OCc2ccccc2)C[C@H]1C(=O)N1Cc2ccccc2C1
5.00 to 6.00
CC(C)(C)[C@H](NC(=O)c1cc2cc(C(F)(F)P(=O)(O)O)ccc2[nH]1)C(=O)N1CCC[C@H]1C(=O)N(c1ccccc1)c1ccc(I)cc1
5.00 to 6.00
CC(C)(C)[C@H](NC(=O)c1cc2cc(C(F)(F)P(=O)(O)O)ccc2s1)C(=O)N1CCC[C@H]1C(=O)N1CCOC(c2ccc(F)cc2F)C1 (stereo partly shown)
< 5.00
CC(C)(C)[C@H](NC(=O)c1cc2cc(C(F)(F)P(=O)(O)O)ccc2[nH]1)C(=O)N1CCC[C@H]1c1nc(Cc2ccccc2)cs1
5.00 to 6.00
CC(C)(C)[C@H](NC(=O)c1cc2cc(C(F)(F)P(=O)(O)O)ccc2[nH]1)C(=O)N1CCC[C@H]1c1ncc(-c2ccccc2)[nH]1
< 5.00
CC(=O)N1CC[C@H]2CC[C@@H](C(=O)N3CCC[C@@H](c4ccccc4)C3)N2C(=O)[C@@H](NC(=O)c2cc3cc(C(F)(F)P(=O)(O)O)ccc3s2)C1
< 5.00
CC(C)(C)[C@H](NC(=O)c1cc2cc(C(F)(F)P(=O)(O)O)ccc2s1)C(=O)N1CCC[C@H]1C(=O)N1C[C@H]2CCN[C@H]2C1
< 5.00
CCCCC(=O)N1CC[C@@H]2CCN(C(=O)[C@@H]3CCCN3C(=O)[C@@H](NC(=O)c3cc4cc(C(F)(F)P(=O)(O)O)ccc4s3)C(C)(C)C)C[C@@H]21
< 5.00
CC(C)(C)[C@H](NC(=O)c1cc2cc(C(F)(F)P(=O)(O)O)ccc2s1)C(=O)N1CCC[C@H]1C(=O)N1C[C@H]2CCN(C(=O)c3ccc(F)cc3)[C@H]2C1
< 5.00

Checklist item: pKi tested on STAT5A (Homo sapiens, UniProt P42229), entry Cc1ccc(C2CN(C(=O)[C@@H]3CCCN3C(=O)[C@@H](NC(=O)c3cc4cc(C(F)(F)P(=O)(O)O)ccc4s3)C(C)(C)C)CCO2)c(C)c1 (stereo partly shown) , value?
< 5.00

Another: CC(C)(C)[C@H](NC(=O)c1cc2cc(C(F)(F)P(=O)(O)O)ccc2s1)C(=O)N1Cc2ccccc2[C@H]1C(=O)N1Cc2ccccc2C1
< 5.00

CCC(CC)[C@H](NC(=O)c1cc2cc(C(F)(F)P(=O)(O)O)ccc2s1)C(=O)N1CCC[C@H]1C(=O)N1CCO[C@@H](c2ccccc2)C1 , same question.
< 5.00

// next record CC(C)(C)[C@H](NC(=O)c1cc2cc(C(F)(F)P(=O)(O)O)ccc2[nH]1)C(=O)N1CCC[C@H]1C(=O)Nc1ccc2ccccc2c1
5.00 to 6.00

Try the compound CC(=O)N1CC[C@@H]2CCN(C(=O)[C@@H]3CCCN3C(=O)[C@@H](NC(=O)c3cc4cc(C(F)(F)P(=O)(O)O)ccc4s3)C(C)(C)C)C[C@@H]21
< 5.00

Would you mind doing CC(C)(C)[C@H](NC(=O)c1cc2cc(C(F)(F)P(=O)(O)O)ccc2s1)C(=O)N1CCC[C@H]1C(=O)N1CCOC(Cc2ccccc2)C1 (stereo partly shown) as well?
< 5.00

Field entry: Cc1ccc(-c2cnc(NC(=O)[C@@H]3CCCN3C(=O)[C@@H](NC(=O)c3cc4cc(C(F)(F)P(=O)(O)O)ccc4s3)C(C)(C)C)s2)cc1
< 5.00

Same for CC(C)(C)[C@H](NC(=O)c1cc2cc(C(F)(F)P(=O)(O)O)ccc2s1)C(=O)N1CCN(C(=O)OCc2ccccc2)C[C@H]1C(=O)Nc1ncc(-c2ccccc2)s1
6.00 to 7.00
